system: Escherichia coli S1N1; experiment: Antimicrobial susceptibility test of clinical isolated strains; format: cell-based; conditions: Escherichia coli, S1N1; antibiotic susceptibility, CLSI 2015 guidelines; read-out: MIC
The entries below are paired with their reported MIC.
Field: numeric (µg/mL). Do not append units.

Completed entries (count: 2):
# structureAsSmiles, unitSymbol, MIC
data = [
    ("CO[C@H]1/C=C/O[C@@]2(C)Oc3c(C)c(O)c4c(O)c(c(/C=N/N5CCN(C)CC5)c(O)c4c3C2=O)NC(=O)/C(C)=C\\C=C\\[C@H](C)[C@H](O)[C@@H](C)[C@@H](O)[C@@H](C)[C@H](OC(C)=O)[C@@H]1C", "µg/mL", 2),
    ("CC[C@H]1OC(=O)[C@H](C)[C@@H](O[C@H]2C[C@@](C)(OC)[C@@H](O)[C@H](C)O2)[C@H](C)[C@@H](O[C@@H]2O[C@H](C)C[C@H](N(C)C)[C@H]2O)[C@](C)(O)C[C@@H](C)CN(C)[C@H](C)[C@@H](O)[C@]1(C)O", "µg/mL", 4),
]

Provide MIC value for the following compound: COc1cccc(OC)c1C(=O)N[C@@H]1C(=O)N2[C@@H]1SC(C)(C)[C@@H]2C(=O)O
128
